tested on: MS2 coat protein; assay: apparent KD of MS2 coat protein; designed switch direction (-1 OFF switch, 1 ON switch): -1; higher = weaker reporter binding; conditions: Eterna round: R95; input ligand: FMN 200 uM
READOUT LABEL: apparent KD of MS2 coat protein (nM)
Entry rule: numbers only, all in nM.

Study these solved cases before continuing.
[[record]]
sequence_text = "GAAAAGGUAGGAUAUACGAAAAAAAAGGAUAGAAAAAAAACACAUGAGGAUCACCCAUGUAGAAGGACCAAAAG [salish99_ex2_r3_066] (puzzle: Exclusion 2)"
endpoint_result = 35.2

[[record]]
sequence_text = "GUUAGACAUGAGGAUCACCCAUGUGAGGAUAUGAUGAGAAUGAAGUAAGAAGUAGGAAUCAGAAGGCACAUAUG [Mat - Mod of Hyphema D31] (puzzle: Exclusion 1)"
endpoint_result = 177

[[record]]
sequence_text = "GAGAAGGUAGGAUAUACGAAGAAAAAGGGUAGAAUAAUAACACAUGAGGAUCACCCAUGUAGAAGGACCAAGAG [Mat - Exclusion 2 - Mod of my Tesla design - D19] (puzzle: Exclusion 2)"
endpoint_result = 44.3

[[record]]
sequence_text = "AGAGAGUCAGGAUAUCGGAGGGCGAGGAGAGGAGAGAGAGACGAGAAGGGACAUGAGGAUCACCCAUGUAGGUG [JR_Exclusion4)Sub018] (puzzle: Exclusion 4)"
endpoint_result = 197

[[record]]
sequence_text = "UGAGGACAUGAGGAUCACCCAUGUAAGGAUAUGCGGAGAGCUUGGAGAGGUUGAGGAGGCAGAAGGUACAGGAC [JR_Exclu1_Sub048] (puzzle: Exclusion 1)"
endpoint_result = 47.7


// lookup apparent KD of MS2 coat protein for GGUACUAACACGAAAGUGUUAGUACAAUAAGCUAGUGGAACAUGAGGAUCACCCAUGUCCUCAUUAGCUCGUCUUAG [Mat - Sensor v3 - Turn-off var 2 - D37] (puzzle: Sensor v3, turn-off variant 2)
14.7

Given the entry GAAAACGUAGGAUAUACGAAAAAAAAGGGUAGAAAAAAAACACAUGAGGAUCACCCAUGUAGAAGGACGAAAAG [salish99_ex2_r3_094] (puzzle: Exclusion 2) , report its measured apparent KD of MS2 coat protein.
66.3

Fill in the blank: the reported apparent KD of MS2 coat protein of UAUAAGGUAGGAUAUACGAAUAAAUAGGGUAGAAUAAUAACACAUGAGGAUCACCCAUGUAGAAGGACCAAGAU [Mat - Exclusion 2 - Mod of my Tesla design - D29] (puzzle: Exclusion 2) is ____.
44.5

Fill blank: measured apparent KD of MS2 coat protein of the sequence GAGAAUUUAUAGGAUAUCGUAUGGAUAAUUUAACGAGAAGGAUGAACAUGAGGAUCACCCAUGUGGUAUCAUGG [JL-ex6-3.14] (puzzle: Exclusion 6) is ____.
270

What does the record list as apparent KD of MS2 coat protein for GUGAAGUGAGGAUAUACGAGAGAGGCUGAACCUGGAGAGAAGUAGAAGGCACAUGAGGAUCACCCAUGUAAGGA [JR_Exclu4_Sub020] (puzzle: Exclusion 4) ?
36.7
